Read-out: CD69, CD69 (gene 969)
Assay Notes: BSK_SAg_CD69: BioMAP Diversity Plus: SAg Assay for CD69 Biomarker Activity (AID 2283089)
Condition Set: primary human HUVEC with PBMC; actives raise or lower the signal
Calls of active or inactive are those of the source. The calls were made as follows: active = hit-call score of the fitted dose curve at least 0.9, where 1 is the maximum; inactive = score below 0.9.
Respond using exactly one of the listed classes: TRUE = active, FALSE = inactive

Before answering, review these 2 worked examples.
Call for entry CC(C)C1OCCN1CCOC(=O)NCCCCCCNC(=O)OCCN1CCOC1C(C)C (stereo not drawn) : FALSE

Call for entry "CCCCCCCCCCCCCCCCCC[N+](C)(C)C" : TRUE

New cases:
Call for entry CCCCCCCCCCC1CO1 (stereo not drawn) : TRUE

---

Assayed Target: Glucocorticoid receptor (Homo sapiens) (UniProt P04150)
Sequence (P04150 whole entry, looked up): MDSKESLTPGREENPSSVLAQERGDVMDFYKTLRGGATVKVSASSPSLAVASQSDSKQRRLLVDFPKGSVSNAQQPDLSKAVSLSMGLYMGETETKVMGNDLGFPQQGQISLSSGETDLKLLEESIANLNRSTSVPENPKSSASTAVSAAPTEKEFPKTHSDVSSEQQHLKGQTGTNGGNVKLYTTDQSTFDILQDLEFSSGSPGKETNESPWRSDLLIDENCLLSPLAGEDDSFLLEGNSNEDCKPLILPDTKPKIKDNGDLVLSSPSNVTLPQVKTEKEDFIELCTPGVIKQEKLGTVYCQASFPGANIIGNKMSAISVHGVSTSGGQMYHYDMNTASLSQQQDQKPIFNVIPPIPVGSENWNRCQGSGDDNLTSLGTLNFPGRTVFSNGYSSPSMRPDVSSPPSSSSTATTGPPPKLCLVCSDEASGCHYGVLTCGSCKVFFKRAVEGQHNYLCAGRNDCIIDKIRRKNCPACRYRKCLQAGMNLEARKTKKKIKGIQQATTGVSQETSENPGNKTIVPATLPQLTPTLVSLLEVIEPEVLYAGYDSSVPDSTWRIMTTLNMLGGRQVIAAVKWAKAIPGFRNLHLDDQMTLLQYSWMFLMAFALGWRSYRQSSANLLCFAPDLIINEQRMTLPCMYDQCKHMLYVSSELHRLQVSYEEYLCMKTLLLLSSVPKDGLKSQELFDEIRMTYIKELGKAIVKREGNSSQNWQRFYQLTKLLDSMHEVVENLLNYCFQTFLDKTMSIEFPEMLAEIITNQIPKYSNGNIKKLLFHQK
Assay Notes: ATG_GR_TRANS: Attagene TRANS-FACTORIAL HepG2 Assay for human Glucocorticoid Receptor (GR) (AID 2282978);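 also: activators score as hits since higher reporter transcript over DMSO is fitted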
Condition Set: HepG2 Attagene TRANS GR reporter, mRNA transcription
Results filed as inconclusive are left out. The source made the active and inactive calls. The calls were made as follows: active = hit-call score of the fitted dose curve at least 0.9, where 1 is the maximum; inconclusive = response in the unintended direction; inactive = score below 0.9.
Respond using exactly one of the listed classes: TRUE for active, FALSE for inactive

Call for entry "Cc1cc(O)cc(C)c1Cl" : FALSE

Call for entry "CC(C)(C)NC(=O)[C@@H]1CN(Cc2cccnc2)CCN1C[C@@H](O)C[C@@H](Cc1ccccc1)C(=O)N[C@H]1c2ccccc2C[C@H]1O" : TRUE

Call for entry "OCCc1ccccn1" : FALSE

Call for entry "CCC(=O)OCc1ccc(OC)cc1" : FALSE

Call for entry "COc1ccc2ccccc2c1" : FALSE

New cases:
Call for entry "CCO[Si](OCC)(OCC)c1ccccc1" : FALSE

Call for entry "CCCCCCOC(=O)CCCCCCCC(=O)OCCCCCC" : FALSE

---

Assay Notes: ATG_TGFb_CIS: Attagene CIS-FACTORIAL HepG2 Assay for human Transforming Growth Factor (TGF) (AID 2282967)
Condition Set: HepG2 Attagene CIS TGFb reporter, mRNA transcription; actives raise or lower the signal
Method: ATG_CIS is a cell-based, multiplexed-readout assay that uses HepG2, a human liver cell line, with measurements taken at 24 hours after chemical dosing in a 24-well plate.ATG_TGFb_CIS is one of 52 assay component(s) measured or calculated from the ATG_CIS assay. […] This assay endpoint, ATG_TGFb_CIS, was analyzed with bidirectional fitting relative to DMSO as the negative control and baseline of activity. […]
Calls of active or inactive are those of the source. Rule for the calls: active = hit-call score of the fitted dose curve at least 0.9, where 1 is the maximum; inactive = score below 0.9.
Respond using exactly one of the listed classes: Yes (active), No (inactive)

Call for entry "CCCCCCCCCCCCCC" : No

Call for entry "Sc1nc2ccccc2s1" : No

Call for entry "CC1(C)S[C@@H]2[C@H](NC(=O)[C@H](N)c3ccccc3)C(=O)N2[C@H]1C(=O)O" : No

Call for entry "CC/C=C/CCO" : No

Call for entry "CC(=O)CCc1ccccc1" : No

---

Assay Notes: TOX21_p53_BLA_p3_viability: Viability Assessment in the Tox21 HCT-116 p53 Agonism Beta-lactamase Assay, Phase 3 (AID 2283593);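 also: cells exposed to compound for 16 h before reading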
Results filed as inconclusive are left out. Activity calls are given as the source filed them. The calls were made as follows: active = hit-call score of the fitted dose curve at least 0.9, where 1 is the maximum; inconclusive = response in the unintended direction; inactive = score below 0.9.
Endpoint: outcome

Which outcome is listed for "CCNC(=O)/C=C/c1cccc(Br)c1" ? inactive

Which outcome is listed for "OCCN(CCO)CCN(CCO)CCO" ? inactive

Which outcome is listed for "COc1cccc(N(C)C(=S)Oc2ccc3c(c2)CCCC3)n1" ? inactive

---

Assayed Target: Cellular tumor antigen p53 (Homo sapiens) (UniProt P04637)
Sequence (P04637 whole entry, looked up): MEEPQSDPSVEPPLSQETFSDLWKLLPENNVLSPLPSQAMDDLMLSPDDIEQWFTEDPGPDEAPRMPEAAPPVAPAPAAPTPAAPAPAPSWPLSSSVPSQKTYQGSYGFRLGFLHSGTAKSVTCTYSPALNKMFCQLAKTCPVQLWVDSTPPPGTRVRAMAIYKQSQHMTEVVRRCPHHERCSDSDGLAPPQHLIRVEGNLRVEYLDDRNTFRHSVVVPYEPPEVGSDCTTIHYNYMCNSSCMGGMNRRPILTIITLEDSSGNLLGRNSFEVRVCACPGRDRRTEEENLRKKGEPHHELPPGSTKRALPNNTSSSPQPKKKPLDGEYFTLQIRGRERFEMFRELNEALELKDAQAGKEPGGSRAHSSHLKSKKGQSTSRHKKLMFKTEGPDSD
Assay Notes: TOX21_p53_BLA_p3_ratio: Tox21 HCT-116 p53 Agonism Beta-lactamase Assay, Ratio, Phase 3 (AID 2283596)
Results filed as inconclusive are left out. Activity calls are given as the source filed them. The calls were made as follows: active = hit-call score of the fitted dose curve at least 0.9, where 1 is the maximum; inconclusive = response in the unintended direction; inactive = score below 0.9.
Respond using exactly one of the listed classes: y = active, n = inactive

Before answering, review these 5 worked examples.
Call for entry "C1CCN2C[C@@H]3C[C@@H](CN4CCCC[C@@H]34)[C@H]2C1" : n

Call for entry "CN1CCN(CCCN2c3ccccc3Sc3ccc(C(F)(F)F)cc32)CC1" : n

Call for entry "NC[C@@H]1O[C@H](O[C@H]2[C@@H](O)[C@H](O[C@@H]3[C@@H](O)[C@H](N)C[C@H](N)[C@H]3O[C@H]3O[C@H](CO)[C@@H](O)[C@H](O)[C@H]3N)O[C@@H]2CO)[C@H](N)[C@@H](O)[C@@H]1O" : n

Call for entry "NC(=O)CCCCC(N)=O" : n

Call for entry "O=C1CCCCCCCCCCCCCC1" : n

New cases:
Call for entry "CC[C@H](C)COC(=O)/C=C/c1ccc(N=Cc2ccc(OC)cc2)cc1" : n

Call for entry "C[C@@H]1C[C@H]2[C@@H]3CCC4=CC(=O)C=C[C@]4(C)[C@@]3(F)[C@@H](O)C[C@]2(C)[C@@]1(O)C(=O)CO" : n

---

Assayed Target: Cellular tumor antigen p53 (Homo sapiens) (UniProt P04637)
Assay Notes: TOX21_p53_BLA_p2_ratio: Tox21 HCT-116 p53 Agonism Beta-lactamase Assay, Ratio, Phase 2 (AID 2283592)
Inconclusive results are not listed. Active and inactive are the calls of the source. Rule for the calls: active = hit-call score of the fitted dose curve at least 0.9, where 1 is the maximum; inconclusive = response in the unintended direction; inactive = score below 0.9.
Endpoint: AC50

Solved cases (10 shown):
Which AC50 is listed for "CO/N=C(/C(=O)N[C@@H]1C(=O)N2C(C(=O)OCOC(=O)C(C)(C)C)=C(C)CS[C@H]12)c1csc(N)n1" ? inactive

Which AC50 is listed for "CN(C)CCn1nnnc1SCC1=C(C(=O)O)N2C(=O)[C@@H](NC(=O)Cc3csc(N)n3)[C@H]2SC1" ? inactive

Which AC50 is listed for "CC(C)NNC(=O)c1ccncc1" ? inactive

Which AC50 is listed for "O=C(OOC(=O)c1ccccc1)c1ccccc1" ? inactive

Which AC50 is listed for CC1(CN2CCC(n3c(=O)[nH]c4ccccc43)CC2)OCc2ccccc2-n2cccc21 (centres undefined) ? inactive

Which AC50 is listed for "CCc1nn(CCCN2CCN(c3cccc(Cl)c3)CC2)c(=O)n1CCOc1ccccc1" ? inactive

Which AC50 is listed for "CS(=O)(=O)Nc1ccc([N+](=O)[O-])cc1Oc1ccccc1" ? inactive

Which AC50 is listed for "CCCCOc1ccc(C(=O)CCN2CCCCC2)cc1" ? inactive

Which AC50 is listed for "CC[C@@H](C(=O)[C@@H](C)[C@@H](O)[C@H](C)CCc1ccc(C)c(O)c1C(=O)O)[C@H]1O[C@](CC)([C@H]2CC[C@](O)(CC)[C@H](C)O2)C[C@@H]1C" ? 17.2 µM (active)

Which AC50 is listed for "Cc1cc(Nc2ccc(O)cc2)ccc1N" ? inactive

New cases:
Which AC50 is listed for "Cc1c(C)n(Cc2ccccc2)c2ccc(C(=O)OCCN(C)C)cc12" ? inactive

Which AC50 is listed for "Cc1ccc(/C=N/n2c(-c3ccccc3)csc2=S)cc1" ? inactive

Which AC50 is listed for "CCN(CC)CCNC(=O)c1ccc(NS(C)(=O)=O)cc1" ? inactive

Which AC50 is listed for "O=C(O)C=CC(=O)Nc1ccc(S(=O)(=O)Nc2nccs2)cc1" ? inactive

Which AC50 is listed for CO/N=C(\C(=O)N[C@@H]1C(=O)N2C(C(=O)O)=C(COC(C)=O)CS[C@H]12)c1csc(N)n1 (stereo in doubt) ? inactive

---

Assay Notes: TOX21_p53_BLA_p4_viability: Viability Assessment in the Tox21 HCT-116 p53 Agonism Beta-lactamase Assay, Phase 4 (AID 2283597);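 also: hits lower the luminescence signal meaning cytotoxicity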
Results filed as inconclusive are left out. Active and inactive are the calls of the source. Rule for the calls: active = hit-call score of the fitted dose curve at least 0.9, where 1 is the maximum; inconclusive = response in the unintended direction; inactive = score below 0.9.
Respond using exactly one of the listed classes: YES for active, NO for inactive

Call for entry "Nc1[nH]c(=O)ncc1F" : NO

Call for entry CC(C)[N+](C)(C)CC(O)COc1cccc2ccccc12 (configuration not stated) : NO

Call for entry "CC(=O)N=c1sc(S(N)(=O)=O)nn1C" : NO

New cases:
Call for entry "NC(=S)NS(=O)(=O)c1ccc(N)cc1" : NO

Call for entry "CN(C)C(=O)CNC(=O)Cc1ccccc1" : NO

Call for entry "O=[N+]([O-])c1c(Cl)cccc1-c1c[nH]cc1Cl" : YES

Call for entry "CC1(C)CC(OC(=O)CCCCCCCCC(=O)OC2CC(C)(C)NC(C)(C)C2)CC(C)(C)N1" : NO

---

Assayed Target: Cellular tumor antigen p53 (Homo sapiens) (UniProt P04637)
Assay Notes: TOX21_p53_BLA_p4_ratio: Tox21 HCT-116 p53 Agonism Beta-lactamase Assay, Ratio, Phase 4 (AID 2283601)
Inconclusive results are not listed. Activity calls are given as the source filed them. How the source made its calls: active means hit-call score of the fitted dose curve at least 0.9, where 1 is the maximum; inconclusive means response in the unintended direction; inactive means score below 0.9.
Respond using exactly one of the listed classes: yes (1) (active), no (0) (inactive)

Call for entry COc1ccccc1OCCNCC(O)COc1cccc2[nH]c3ccccc3c12 (stereo unspecified) : yes (1)

Call for entry "Cc1cc(C)c(NC(=O)C[C@H](CC(=O)O)c2cccc3ccccc23)c(C(=O)N2CCC3(CCCC3)CC2)c1" : no (0)

Call for entry "OCCN1CCN(CCCN2c3ccccc3C=Cc3ccccc32)CC1" : no (0)

Call for entry "CC1(C)C(\C=C/C=C\C=C/C=C2/N(CCCCS(=O)(=O)O)c3ccc4ccccc4c3C2(C)C)=[N+](CCCCS(=O)(=O)[O-])c2ccc3ccccc3c21" : no (0)

Call for entry CC1(COc2ccc(CC3SC(=O)NC3=O)cc2)CCCCC1 (stereo unspecified) : yes (1)

Okay, now this molecule:
Call for entry "NC(=S)N=Nc1ccc(NN=C(N)N)cc1" : no (0)
